Source: patent US20240117005A1

Reported values of % Inhibition (number of metastatic initiating cells) for individual entries
test system: metastatic initiating cells (MICs); experiment: Flow cytometry for alanine walk (MIC inhibition); type: cell-based; conditions: alanine walk peptide inhibitors, FACS MIC signature
measured parameter: % Inhibition (number of metastatic initiating cells) (%)

{"columns": ["sequence chain", "target of assay", "endpoint result"],
 "data": [
  ["TFIFRLRKGRMMDVAK", "metastatic initiating cells (MICs)", 48.7],
  ["TFIFRLRAGRMMDVKK", "metastatic initiating cells (MICs)", 0],
  ["TFIFRLRKGAMMDVKK", "metastatic initiating cells (MICs)", 62.69],
  ["TFAFRLRKGRMMDVKK", "metastatic initiating cells (MICs)", 30.2],
  ["TFIFRLRKGRMMDVKA", "metastatic initiating cells (MICs)", 58.03],
  ["TFIFRLAKGRMMDVKK", "metastatic initiating cells (MICs)", 43.98],
  ["TFIFRLRKARMMDVKK", "metastatic initiating cells (MICs)", 41.38],
  ["TFIFRLRKGRAMDVKK", "metastatic initiating cells (MICs)", 74.35],
  ["TAIFRLRKGRMMDVKK", "metastatic initiating cells (MICs)", 74.35],
  ["AFIFRLRKGRMMDVKK", "metastatic initiating cells (MICs)", 80.13],
  ["TFIARLRKGRMMDVKK", "metastatic initiating cells (MICs)", 4.4],
  ["TFIFALRKGRMMDVKK", "metastatic initiating cells (MICs)", 71.67],
  ["TFIFRLRKGRMADVKK", "metastatic initiating cells (MICs)", 100],
  ["TFIFRLRKGRMMAVKK", "metastatic initiating cells (MICs)", 100],
  ["TFIFRLRKGRMMDAKK", "metastatic initiating cells (MICs)", 81.9],
  ["TFIFRARKGRMMDVKK", "metastatic initiating cells (MICs)", 35.6]
]}
